Test system: Escherichia coli TOP10;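 also: peptides expressed intracellularly from a pBAD plasmid library in pooled LB shake-flask culture, induced with 0.3% L-arabinose, DNA abundance read by NGS, three biological replicates, DESeq2 with apeglm shrinkage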
Experiment: shrunken log2 fold change of peptide-encoding DNA abundance (4.5 h post-induction vs induction); higher = less antimicrobial activity (less host growth inhibition)
Details: time post-induction: 4.5 h; library: site-saturation at positions 5, 18, 19, 20
The sequences listed here are annotated with their shrunken log2 fold change.

Residues: RRIRGRPPRLPRPRPRPMWYPRP
shrunken log2 fold change: 0.293
--
Residues: RRIRKRPPRLPRPRPRPREEPRP
shrunken log2 fold change: 1.2
--
Residues: RRIRYRPPRLPRPRPRPKLQPRP
shrunken log2 fold change: 0.124
--
Residues: RRIRQRPPRLPRPRPRPAKVPRP
shrunken log2 fold change: 0.325
--
Residues: RRIRRRPPRLPRPRPRPHKAPRP
shrunken log2 fold change: 0.434
--
Residues: RRIRWRPPRLPRPRPRPCLFPRP
shrunken log2 fold change: -0.00127
--
Residues: RRIRDRPPRLPRPRPRPHWMPRP
shrunken log2 fold change: 0.236
--
Residues: RRIRFRPPRLPRPRPRPWMGPRP
shrunken log2 fold change: -0.592
--
Residues: RRIRPRPPRLPRPRPRPPPGPRP
shrunken log2 fold change: 0.816
--
Residues: RRIRQRPPRLPRPRPRPCCTPRP
shrunken log2 fold change: -0.137
--
Residues: RRIRMRPPRLPRPRPRPQHFPRP
shrunken log2 fold change: 0.00913
--
Residues: RRIRMRPPRLPRPRPRPSSRPRP
shrunken log2 fold change: 0.208
--
Residues: RRIRARPPRLPRPRPRPYYQPRP
shrunken log2 fold change: -0.374
--
Residues: RRIRFRPPRLPRPRPRPEIIPRP
shrunken log2 fold change: -0.0938
--
Residues: RRIRPRPPRLPRPRPRPSVQPRP
shrunken log2 fold change: -0.0553
